protocol: Toxicity test (LD50, Miller and Tainter)
experimental parameters: mouse, in vivo; oral, mice; read-out: DL50 oral
Where a name gives a salt, the structure may show the parent alone.

# compound, lt gt eq, LD50 (mg/kg)
rows = [
    ("C=CCNCC(=O)N(C)c1ccc(Cl)cc1C(=O)c1ccccc1 [Example 7, hydrochloride]", ">", 1000),
    ("COCCNCC(=O)N(C)c1ccc(Cl)cc1C(=O)c1ccccc1 [Example 5, hydrochloride]", "=", 750),
    ("C#CC(C)(C)NCC(=O)N(C)c1ccc(Cl)cc1C(=O)c1ccccc1 [Example 2, hydrochloride]", ">", 1000),
    ("C=C(C)CNCC(=O)N(C)c1ccc(Cl)cc1C(=O)c1ccccc1 [Example 19, hydrochloride]", "=", 1500),
    ("CN1CCN(CC(=O)N(C)c2ccc(Cl)cc2C(=O)c2ccccc2)CC1", "=", 1000),
    ("CC(C)N(CC(=O)N(C)c1ccc(Cl)cc1C(=O)c1ccccc1)C1CCCCC1 [Example 21, hydrochloride]", "=", 1000),
    ("CN(C(=O)Cn1ccnc1)c1ccc(Cl)cc1C(=O)c1ccccc1", "=", 1000),
    ("CN(C(=O)CN(CCO)CCO)c1ccc(Cl)cc1C(=O)c1ccccc1 [Example 16, hydrochloride]", ">", 1000),
]

---

protocol: Solubility
Type: physicochemical
experimental parameters: in water
Structures can show the parent of a compound that is named as a salt.
Recorded solubility for the following compounds
property measured: solubility (mg/mL)

# compound, property measured, value reported
rows = [
    ("CN(C(=O)CN(CCO)CCO)c1ccc(Cl)cc1C(=O)c1ccccc1 [Example 16, hydrochloride]", "solubility", 50),
    ("CC(C)N(CC(=O)N(C)c1ccc(Cl)cc1C(=O)c1ccccc1)C1CCCCC1 [Example 21, hydrochloride]", "solubility", 50),
    ("C=C(C)CNCC(=O)N(C)c1ccc(Cl)cc1C(=O)c1ccccc1 [Example 19, hydrochloride]", "solubility", 50),
    ("CC(C)NCC(=O)N(C)c1ccc(Cl)cc1C(=O)c1ccccc1 [Example 1, hydrochloride]", "solubility", 10),
]

---

Tested on: pentamethylene tetrazole-induced tonic spasms
protocol: Anti-pentamethylene tetrazole activity
Assay type: in vivo, male mice of the Swiss strain
experimental parameters: Mus musculus, ip; intraperitoneal, 125 mg/kg s.c. pentamethylene tetrazole, male Swiss mice; read-out: anti-pentamethylene tetrazole activity DE50 I.P.
Counter-ions that a name gives are not always drawn.

# compound, ED50 / mg/kg
records = [
    ("CN(C(=O)CNC1CCCCC1)c1ccc(Cl)cc1C(=O)c1ccccc1 [Example 11, hydrochloride]", 1.25),
    ("CN(CCO)CC(=O)N(C)c1ccc(Cl)cc1C(=O)c1ccccc1 [Example 14]", 1.5),
    ("CN(C(=O)CN1CCOCC1)c1ccc(Cl)cc1C(=O)c1ccccc1 [Example 18, hydrochloride]", 1.4),
    ("C=C(C)CNCC(=O)N(C)c1ccc(Cl)cc1C(=O)c1ccccc1 [Example 19, hydrochloride]", 1.1),
]

---

System: pentamethylene tetrazole-induced tonic spasms
protocol: Anti-pentamethylene tetrazole activity
Assay type: in vivo, male mice of the Swiss strain
experimental parameters: Mus musculus, po; prior art comparison, VO, dose giving 50% inhibition; read-out: Activity antipentetrazol (VO), 50% inhibition
Where a name gives a salt, the structure may show the parent alone.

# molecule, ED50 / mg/kg
measured = [
    ("CN(C)CC(=O)N(C)c1ccc(Cl)cc1C(=O)c1ccccc1 [Example 4]", 1.7),
    ("CC(CNCC(=O)N(C)c1ccc(Cl)cc1C(=O)c1ccccc1)c1ccccc1 (centres unmarked)", 2.9),
    ("CNCC(=O)N(C)c1ccc(Cl)cc1C(=O)c1ccccc1 [Example 3, hydrochloride]", 1.7),
    ("CN(C(=O)CNCc1ccccc1)c1ccc(Cl)cc1C(=O)c1ccccc1 [drawing 35]", 3),
    ("C#CC(C)(C)NCC(=O)N(C)c1ccc(Cl)cc1C(=O)c1ccccc1 [drawing 31]", 2.3),
]

---

protocol: Solubility
Type: physicochemical
experimental parameters: in water
Structures can show the parent of a compound that is named as a salt.

# molecule, solubility in water (in words)
measured = [
    ("CCN(CCO)CC(=O)N(C)c1ccc(Cl)cc1C(=O)c1ccccc1 [Example 15]", "insoluble"),
    ("CN(C(=O)CNC1CCCCC1)c1ccc(Cl)cc1C(=O)c1ccccc1 [Example 11, hydrochloride]", "insoluble"),
    ("CN(C(=O)Cn1ccnc1)c1ccc(Cl)cc1C(=O)c1ccccc1 [Example 23]", "insoluble"),
    ("C#CC1(NCC(=O)N(C)c2ccc(Cl)cc2C(=O)c2ccccc2)CCCCC1 [Example 9, hydrochloride]", "insoluble"),
    ("CN(C)CC(=O)N(C)c1ccc(Cl)cc1C(=O)c1ccccc1 [Example 4]", "insoluble"),
    ("C#CC(CC)(CC)NCC(=O)N(C)c1ccc(Cl)cc1C(=O)c1ccccc1 [Example 8, hydrochloride]", "insoluble"),
    ("CN(C(=O)CNC(C)(C)CO)c1ccc(Cl)cc1C(=O)c1ccccc1 [Example 12]", "insoluble"),
    ("CN1CCN(CC(=O)N(C)c2ccc(Cl)cc2C(=O)c2ccccc2)CC1 [Example 22]", "insoluble"),
    ("CN(CCO)CC(=O)N(C)c1ccc(Cl)cc1C(=O)c1ccccc1 [Example 14]", "insoluble"),
]

---

protocol: Toxicity test (LD50, Miller and Tainter)
experimental parameters: mouse, in vivo, ip; intraperitoneal, mice; read-out: DL50 I.P.
Counter-ions that a name gives are not always drawn.
Output Condition met for records whose LD50 is lower than 400 mg/kg, Condition not met for records at or above 400 mg/kg.

# compound, assigned class
data = [
    ("C=C(C)CNCC(=O)N(C)c1ccc(Cl)cc1C(=O)c1ccccc1 [Example 19, hydrochloride]", "Condition not met"),
    ("C#CC(C)(C)NCC(=O)N(C)c1ccc(Cl)cc1C(=O)c1ccccc1 [Example 2, hydrochloride]", "Condition not met"),
    ("C#CC1(NCC(=O)N(C)c2ccc(Cl)cc2C(=O)c2ccccc2)CCCCC1 [Example 9, hydrochloride]", "Condition met"),
    ("COCCNCC(=O)N(C)c1ccc(Cl)cc1C(=O)c1ccccc1 [Example 5, hydrochloride]", "Condition met"),
    ("CCN(CCO)CC(=O)N(C)c1ccc(Cl)cc1C(=O)c1ccccc1", "Condition met"),
    ("CN(C(=O)Cn1ccnc1)c1ccc(Cl)cc1C(=O)c1ccccc1", "Condition not met"),
    ("CN1CCN(CC(=O)N(C)c2ccc(Cl)cc2C(=O)c2ccccc2)CC1", "Condition not met"),
]

---

protocol: Solubility
Assay type: physicochemical
experimental parameters: in water
Where a name gives a salt, the structure may show the parent alone.

# molecule, unit of measurement, solubility
rows = [
    ("CN(C(=O)CN(C)C1CCCCC1)c1ccc(Cl)cc1C(=O)c1ccccc1 [Example 20, hydrochloride]", "mg/mL", 20),
    ("COCCNCC(=O)N(C)c1ccc(Cl)cc1C(=O)c1ccccc1 [Example 5, hydrochloride]", "mg/mL", 500),
    ("C#CC(C)(C)NCC(=O)N(C)c1ccc(Cl)cc1C(=O)c1ccccc1 [Example 2, hydrochloride]", "mg/mL", 10),
    ("CN(C(=O)CNCc1ccccc1)c1ccc(Cl)cc1C(=O)c1ccccc1 [Example 6, hydrochloride]", "mg/mL", 25),
    ("CN(C(=O)CN1CCCCC1)c1ccc(Cl)cc1C(=O)c1ccccc1 [Example 17, hydrochloride]", "mg/mL", 500),
    ("CN(C(=O)CNC1CC1)c1ccc(Cl)cc1C(=O)c1ccccc1 [Example 10, hydrochloride]", "mg/mL", 13),
    ("C=CCNCC(=O)N(C)c1ccc(Cl)cc1C(=O)c1ccccc1 [Example 7, hydrochloride]", "mg/mL", 30),
    ("CNCC(=O)N(C)c1ccc(Cl)cc1C(=O)c1ccccc1 [Example 3, hydrochloride]", "mg/mL", 150),
    ("CCC(CO)(CO)NCC(=O)N(C)c1ccc(Cl)cc1C(=O)c1ccccc1 [Example 13, hydrochloride]", "mg/mL", 500),
    ("CN(C(=O)CN1CCOCC1)c1ccc(Cl)cc1C(=O)c1ccccc1 [Example 18, hydrochloride]", "mg/mL", 100),
]

---

System: male Swiss mice
protocol: Rota-Rod test
Assay type: in vivo
experimental parameters: falls off rod in less than 2 minutes
Procedure: This test is carried out on male Swiss mice. The mouse is placed on a 3 cm diameter wooden rod rotating at 5 revolutions per minute. The mice which succeed in remaining on the rod for at least 3 minutes in successive tests are selected and gathered into groups of 10 for the test of each dose. If the mouse falls off the rod in less than 2 minutes, the tested compound is considered to be effective. […]
Counter-ions that a name gives are not always drawn.

# molecule, Rota Rod DE50 V.O.
measured = [
    ("C=C(C)CNCC(=O)N(C)c1ccc(Cl)cc1C(=O)c1ccccc1 [Example 19, hydrochloride]", 21),
    ("CN(CCO)CC(=O)N(C)c1ccc(Cl)cc1C(=O)c1ccccc1", 66),
    ("CN(C(=O)CN1CCOCC1)c1ccc(Cl)cc1C(=O)c1ccccc1 [Example 18, hydrochloride]", 60),
    ("CN(C(=O)CNC1CCCCC1)c1ccc(Cl)cc1C(=O)c1ccccc1 [Example 11, hydrochloride]", 27),
]
